// data source = patent US20200237746A1

Test Method Notes: in vivo
Conditions Used: rat, 1 mg/kg
Measurement Kind: AUC(0-inf)

According to the records, this compound CCc1c2c(nc3ccc(OC(=O)N4CCC(CCn5ccc6cc(-n7c(O)nnc7-c7cc(C(C)C)c(O)cc7O)ccc65)CC4)cc13)-c1cc3c(c(=O)n1C2)COC(=O)[C@]3(O)CC displays AUC(0-inf) of 3.93 µM·h

###

Test Method Notes: in vivo
Conditions Used: rat, 1 mg/kg
Measurement Kind: AUC(0-t)
Form field: result (number plus unit)

According to the records, this compound CCc1c2c(nc3ccc(OC(=O)N4CCC(CCn5ccc6cc(-n7c(O)nnc7-c7cc(C(C)C)c(O)cc7O)ccc65)CC4)cc13)-c1cc3c(c(=O)n1C2)COC(=O)[C@]3(O)CC displays AUC(0-t) of 3.93 µM·h
